# test description: Cytotoxicity against mouse NIH/3T3 cells assessed as dead cells at 12.5 ug/mL after 72 hrs by Alamar Blue assay relative to control
# Format: cell-based
# experimental conditions: nih3t3, 72 h
assay metric: mortality

- compound: "CC1(c2ccccc2)CC2=C(O1)c1ccccc1C(=O)C2=O (stereo not given)"
  result: "0%"
- compound: "COc1cccc2c1C(=O)c1c(O)c3c(c(O)c1C2=O)C[C@@](O)(C(=O)CO)C[C@@H]3O[C@H]1C[C@H](N)[C@H](O)[C@H](C)O1"
  result: "36%"
- compound: "Cc1ccc(C2CC3=C(O2)C(=O)c2ccccc2C3=O)c(C)c1 (stereo not given)"
  result: "0%"
- compound: "O=C1C2=C(OC(c3ccccc3)C2)C(=O)c2ccccc21 (stereo not given)"
  result: "0%"
- compound: "CC1(C)CC2=C(O1)c1ccccc1C(=O)C2=O"
  result: "11%"
- compound: "O=C1C2=C(OC(c3ccc(Br)cc3)C2)C(=O)c2ccccc21 (stereo not given)"
  result: "0%"
- compound: "O=C1C2=C(OC(c3ccc(F)cc3)C2)C(=O)c2ccccc21 (stereo not given)"
  result: "0%"
- compound: "O=C1C(=O)c2ccccc2C2=C1CC(c1ccc(F)cc1)O2 (stereo not given)"
  result: "0%"
- compound: "O=C1C(=O)c2ccccc2C2=C1CC(c1ccccc1)O2 (stereo not given)"
  result: "0%"
- compound: "CC1(c2ccccc2)CC2=C(O1)C(=O)c1ccccc1C2=O (stereo not given)"
  result: "0%"

----------
Quick reference: zone of inhibition at 250 µg/mL of the listed items.
# System: Pichia kudriavzevii
# test description: Antifungal activity against Candida krusei assessed as growth inhibition at 250 ug/mL after 24 hrs by hole plate diffusion method
# Format: functional
# experimental conditions: read-out: IZ

- compound: "O=C1C2=C(OC(c3ccc(Cl)cc3)C2)C(=O)c2ccccc21 (stereo not given)"
  zone of inhibition at 250 µg/mL: "6.14 mm"
- compound: "CCC(C)n1ncn(-c2ccc(N3CCN(c4ccc(OCC5COC(Cn6cncn6)(c6ccc(Cl)cc6Cl)O5)cc4)CC3)cc2)c1=O (stereo not given) [ITRACONAZOLE]"
  zone of inhibition at 250 µg/mL: "30.3 mm"
- compound: "O=C1C(=O)c2ccccc2C2=C1CC(c1ccc(F)cc1)O2 (stereo not given)"
  zone of inhibition at 250 µg/mL: "9.8 mm"
- compound: "O=C1C2=C(OC(c3ccccc3)C2)C(=O)c2ccccc21 (stereo not given)"
  zone of inhibition at 250 µg/mL: "8.29 mm"
- compound: "CC1(c2ccccc2)CC2=C(O1)c1ccccc1C(=O)C2=O (stereo not given)"
  zone of inhibition at 250 µg/mL: "8.52 mm"
- compound: "Cc1ccc(C2CC3=C(O2)C(=O)c2ccccc2C3=O)cc1 (stereo not given)"
  zone of inhibition at 250 µg/mL: "4.94 mm"
- compound: "CC1(C)CC2=C(O1)C(=O)c1ccccc1C2=O"
  zone of inhibition at 250 µg/mL: "14.6 mm"
- compound: "OC(Cn1cncn1)(Cn1cncn1)c1ccc(F)cc1F [FLUCONAZOLE]"
  zone of inhibition at 250 µg/mL: "9.64 mm"
- compound: "O=C1C2=C(OC(c3ccc(F)cc3)C2)C(=O)c2ccccc21 (stereo not given)"
  zone of inhibition at 250 µg/mL: "9.12 mm"
- compound: "CC1(C)CC2=C(O1)c1ccccc1C(=O)C2=O [NOR-BETA-LAPACHONE]"
  zone of inhibition at 250 µg/mL: "9.01 mm"
- compound: "CC1(c2ccccc2)CC2=C(O1)C(=O)c1ccccc1C2=O (stereo not given)"
  zone of inhibition at 250 µg/mL: "7.05 mm"
- compound: "Cc1ccc(C2CC3=C(O2)c2ccccc2C(=O)C3=O)cc1 (stereo not given)"
  zone of inhibition at 250 µg/mL: "5.77 mm"
- compound: "Cc1ccc(C2CC3=C(O2)c2ccccc2C(=O)C3=O)c(C)c1 (stereo not given)"
  zone of inhibition at 250 µg/mL: "10.8 mm"
- compound: "O=C1C2=C(OC(c3ccc(Br)cc3)C2)C(=O)c2ccccc21 (stereo not given)"
  zone of inhibition at 250 µg/mL: "7.5 mm"
- compound: "Cc1ccc(C2CC3=C(O2)C(=O)c2ccccc2C3=O)c(C)c1 (stereo not given)"
  zone of inhibition at 250 µg/mL: "9.87 mm"
- compound: "O=C1C(=O)c2ccccc2C2=C1CC1(C=CC=C1)O2"
  zone of inhibition at 250 µg/mL: "8.8 mm"
- compound: "O=C1C(=O)c2ccccc2C2=C1CC(c1ccc(Br)cc1)O2 (stereo not given)"
  zone of inhibition at 250 µg/mL: "11.3 mm"
- compound: "O=C1C(=O)c2ccccc2C2=C1CC(c1ccc(Cl)cc1)O2 (stereo not given)"
  zone of inhibition at 250 µg/mL: "5.65 mm"
- compound: "O=C1C(=O)c2ccccc2C2=C1CC(c1ccccc1)O2 (stereo not given)"
  zone of inhibition at 250 µg/mL: "12 mm"
- compound: "O=C1C2=C(OC3(C=CC=C3)C2)C(=O)c2ccccc21"
  zone of inhibition at 250 µg/mL: "10.8 mm"
